targetOrSystem: Neuropeptide Y receptor type 1 (Homo sapiens) (UniProt P25929)
Sequence (P25929 whole entry): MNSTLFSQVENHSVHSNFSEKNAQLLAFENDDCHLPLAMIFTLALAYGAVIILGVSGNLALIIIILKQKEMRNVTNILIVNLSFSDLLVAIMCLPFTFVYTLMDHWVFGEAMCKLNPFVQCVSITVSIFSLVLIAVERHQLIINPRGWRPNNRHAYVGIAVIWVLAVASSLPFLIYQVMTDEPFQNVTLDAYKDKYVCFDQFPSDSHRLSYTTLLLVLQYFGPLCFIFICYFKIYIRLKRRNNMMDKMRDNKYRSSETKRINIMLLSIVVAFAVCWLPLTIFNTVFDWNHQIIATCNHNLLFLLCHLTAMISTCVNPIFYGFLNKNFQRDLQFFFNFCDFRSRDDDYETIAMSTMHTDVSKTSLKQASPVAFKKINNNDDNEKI
protocol: Antagonist activity at Y1R in human HEL cells assessed as inhibition of pNPY induced [Ca2+] mobilisation
Type: functional, cell-based
property: Kb

- smilesRepr: "Cc1cc(/C=C/c2cc3c4c(c2)CCCN4CCC3)cc(C)[n+]1CCCNC(=O)CCCC(=O)/N=C(/N)NCCC[C@@H](NC(=O)C(c1ccccc1)c1ccccc1)C(=O)NCc1ccc(O)cc1.O=C([O-])C(F)(F)F"
  measured: "11 nM"
- smilesRepr: "Cc1cc(/C=C/c2cc3c4c(c2)CCCN4CCC3)cc(C)[n+]1CCNC(=O)CCCC(=O)/N=C(/N)NCCC[C@@H](NC(=O)C(c1ccccc1)c1ccccc1)C(=O)NCc1ccc(O)cc1.O=C([O-])C(F)(F)F"
  measured: "6 nM"
- smilesRepr: "Cc1cc(/C=C/c2cc3c4c(c2)CCCN4CCC3)cc(C)[n+]1CCN(CCNC(=O)CCCNC(=O)CCCC(=O)/N=C(\\N)NCCC[C@@H](NC(=O)C(c1ccccc1)c1ccccc1)C(=O)NCc1ccc(O)cc1)CCNC(=O)CCCNC(=O)CCCC(=O)/N=C(\\N)NCCC[C@@H](NC(=O)C(c1ccccc1)c1ccccc1)C(=O)NCc1ccc(O)cc1.O=C([O-])C(F)(F)F"
  measured: "1 nM"
